Hello, the source for this data is ChEMBL document CHEMBL1146332, in case you need it.

- Target or system: Cell division protein FtsZ (Pseudomonas aeruginosa (strain ATCC 15692 / PAO1 / 1C / PRS 101 / LMG12228))
- Sequence (P47204 whole entry): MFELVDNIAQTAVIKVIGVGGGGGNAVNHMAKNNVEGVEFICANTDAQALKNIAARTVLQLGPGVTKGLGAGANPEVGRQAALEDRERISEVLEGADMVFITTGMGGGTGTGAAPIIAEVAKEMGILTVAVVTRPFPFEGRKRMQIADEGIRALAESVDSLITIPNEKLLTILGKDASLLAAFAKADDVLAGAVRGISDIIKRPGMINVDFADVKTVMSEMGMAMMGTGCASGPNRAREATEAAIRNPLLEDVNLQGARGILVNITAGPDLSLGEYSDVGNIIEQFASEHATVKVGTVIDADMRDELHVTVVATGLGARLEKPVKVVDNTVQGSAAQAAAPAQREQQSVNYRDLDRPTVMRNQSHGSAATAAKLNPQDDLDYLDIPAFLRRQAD
- Test summary: Inhibition of Pseudomonas aeruginosa FtsZ GTPase activity by spectrophotometric assay
Record form. Attribute: pIC50. Fill in for each entry.
Scale for pIC50: -log10 of concentration given in mol/L; no unit attached.

Q. Which pIC50 is listed for `Nc1nc(Cl)c2ncn(C[C@H](NC(=O)Nc3ccccc3)C(=O)O)c2n1` ?
A. 3.35

Q. Then this compound: `CCCNC(=O)[C@H](Cn1cnc2c(Cl)nc(N)nc21)NC(=O)N[C@H](C)c1ccccc1`
A. 2.74

Q. Then this compound: `CCCNC(=O)[C@H](Cn1cnc2c(Cl)nc(N)nc21)NS(C)(=O)=O`
A. 3.15

Q. Next record, please: `Nc1nc(Cl)c2ncn(C[C@H](NC(=O)Cc3ccccc3)C(=O)O)c2n1`
A. 2.70
